# credit: ChEMBL document CHEMBL1157539

Item-by-item account of Inhibition
test system: HepG2; test: GSK_TCMDC: Percent inhibition of human HepG2 cell line. Test compounds present at 10uM.; assay type: functional
measured-attribute: Inhibition (%)

OC(CNCc1cccc(Oc2ccc(Cl)cc2)c1)c1cccc(C(F)(F)F)c1 (stereo unspecified)	0
CCOc1ccccc1C(=O)Nc1cccc(-c2nc3ncccn3c2C)c1	0
CCCNCc1ccc(-c2ccc(CN(C(=O)c3nn(-c4ccccc4)nc3C)C3CC3)cc2)nc1.O=C(O)C(F)(F)F	23
COc1cccc(NC(=O)Nc2cc(-c3ccc4[nH]ncc4c3)cc3c2CNC3=O)c1	3
c1ccc(Oc2ccc(Nc3ccnc4cc(-c5cccc(CNCCN6CCOCC6)c5)ccc34)cc2)cc1	12
Cc1oc(-c2ccc(Cl)cc2)cc1C(=O)NCCC1CCN(CCCCCNC(=O)/C=C/c2ccc(Cl)c(Cl)c2)CC1	100
Cc1nc(-c2cccc(Nc3nccc(NCC(O)c4ccccc4C)n3)c2)cs1 (stereo unspecified)	38
CCOc1cc(Br)c(C(C)NC(=O)c2cccc(OC)c2)cc1OCC (stereo unspecified)	0
CN(CCc1ccccc1)c1ncc(-c2ccccc2CNCc2ccccc2O)cn1	10
NCc1ccc(CNCc2cccc(-c3ccc(-c4nc5cc(C(F)(F)F)ccc5[nH]4)cc3)c2)cc1.O=C(O)C(F)(F)F	13
CC(C)(C)NC(=O)c1ccc(Oc2ccc(OC(F)(F)F)cc2)c(NC(=O)C(C)(C)C)c1	0
CC(C)c1cc(Oc2c(I)cc(CCCc3ncc[nH]3)cc2I)ccc1O.Cl	28
Cc1cccc(C(=O)Nc2ccnc(N(C)CCCN(C)Cc3cccc(C#N)c3)c2)c1.O=C(O)C(F)(F)F	1
CC(=O)Nc1cccc(Nc2nccc(-c3c(-c4cccc(NC(=O)c5c(F)cccc5F)c4)nn4ncccc34)n2)c1	83
Cl.O=c1cc(NCCCCNCc2ccc(Br)c(Br)c2)[nH]c2ccccc12	13
COc1ccc(C2CC(c3cccs3)=NN2C(=O)c2ccco2)cc1OC (stereo unspecified)	0
O=C(Nc1ccc(-c2nc3ccccc3[nH]2)cc1)c1ccc(N2CCCC2)c([N+](=O)[O-])c1	43
CCC(C)NC(=O)CN1CN(c2ccccc2)C2(CCN(C(=O)c3ccc4ccccc4c3)CC2)C1=O (stereo unspecified)	0
N=C(N)NN=Cc1c[nH]c2ccc(-c3ccccc3)cc12.O=C(O)/C=C\C(=O)O	15
COc1ccc(CNCc2ccc(-c3ccc(-c4nc5cc(F)ccc5[nH]4)cc3)cc2)cc1.O=C(O)C(F)(F)F	70
CC(C)Cc1cn(-c2nc(C(=N)N)cs2)c2cc(Cl)ccc12	98
COc1ccc(C2CC(c3cccs3)=NN2C(=O)c2ccccc2)cc1OC (stereo unspecified)	5
CCCc1ccc(Nc2nc(C)cc(N(CC)CCCN3CCCCC3)n2)cc1.O=C(O)C(F)(F)F	48
COc1cc(NC(=O)/C=C/c2ccccc2OC(F)(F)F)cc(OCCN2CCC(O)(c3ccccc3)CC2)c1.O=C(O)C(=O)O	61
Cc1ccc(Oc2ccccc2NC(=O)CCc2nc3ccccc3c(=O)[nH]2)cc1	3
CC(Cc1ccc(NC(=O)c2ccc(CC(C)NCc3ccc(Cl)c(Cl)c3)cc2)cc1)NCCc1cccc(Cl)c1 (stereo unspecified)	26
O=C(O)C(F)(F)F.O=S(=O)(/C=C/c1ccccc1)N(Cc1ccc(-c2ccc(CNCCc3ccccn3)cc2)cc1)CC1CCCCN1 (stereo unspecified)	46
COc1ccc(Cc2c(N)nc3nc(N)nc(N)c3c2C)cc1.Cl	64
Cc1noc(C)c1-c1cccc(CNCc2cccc(-c3cccc(-c4nc5cc(F)ccc5[nH]4)c3)c2)c1.O=C(O)C(F)(F)F	18
COc1c(CNCCCCCCNCc2cc(Cl)c3ccccc3c2OC)cc(Cl)c2ccccc12.CS(=O)(=O)O	100
CCCCCCCCN1CCCN(C(=O)c2cccc(NC(=O)Nc3ccc4ccccc4c3)c2)CC1.O=C(O)C(F)(F)F	39
CC(C)c1ccc(CN2CCC(NC(=O)c3ccc(-c4ccccc4F)s3)CC2)cc1.O=C(O)C(F)(F)F	46
FC(F)(F)c1ccc2[nH]c(-c3ccc(-c4cccc(CNCC5CCCO5)c4)cc3)nc2c1.O=C(O)C(F)(F)F (stereo unspecified)	36
COc1ccc2nccc([C@@H](O)CN3CCC(NCc4cc5cccc(O)c5[nH]4)CC3)c2c1.O=C(O)C(=O)O	0
CC(C)(CN)c1nc(-c2ccc(Cl)c(O)c2)c(-c2ccncc2)[nH]1.Cl	34
Cc1c(Br)cc2nc(-c3ccc(C(=O)NC4CCN(Cc5ccccc5)CC4)cc3)[nH]c2c1C	4
